- assay.system: G/T mismatch-specific thymine DNA glycosylase (Homo sapiens) (UniProt Q13569);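 also: human TDG cleavage of quenched duplex DNA oligonucleotides coupled to APE1, strand release read as fluorescence at 594 nm, inhibition of TDG activity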
- Sequence (Q13569 whole entry): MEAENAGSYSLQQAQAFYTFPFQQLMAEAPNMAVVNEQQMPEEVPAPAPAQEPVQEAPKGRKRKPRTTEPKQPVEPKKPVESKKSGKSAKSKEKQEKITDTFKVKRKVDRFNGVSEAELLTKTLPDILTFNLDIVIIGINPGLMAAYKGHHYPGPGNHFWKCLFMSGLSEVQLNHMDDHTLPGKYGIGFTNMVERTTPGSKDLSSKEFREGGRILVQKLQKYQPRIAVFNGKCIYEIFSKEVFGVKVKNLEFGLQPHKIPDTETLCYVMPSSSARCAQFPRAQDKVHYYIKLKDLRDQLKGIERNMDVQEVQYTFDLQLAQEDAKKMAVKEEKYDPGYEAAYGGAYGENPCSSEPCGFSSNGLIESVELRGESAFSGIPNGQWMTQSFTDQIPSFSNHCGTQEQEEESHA
- condition.description: Compound Concentration 1.0 uM, Hit No
- Description: Inhibition of TDG by quantifying inhibition of TDG-mediated cleavage and dissociation of quenched duplex DNA oligonucleotides, measured as fluorescence at 594 nm. To generate a functional strand incision and increase turn-over this assay is coupled to APE1.
For each record, write down the corresponding inhibition.
Could you give me the number in %? Just the number is fine.

Input: Query for G/T mismatch-specific thymine DNA glycosylase (Homo sapiens) (UniProt Q13569): what inhibition does the record show for CCCOc1ccc([C@H]2[C@H](C(=O)O)[C@@H](c3ccc4c(c3)OCO4)CN2CC(=O)Nc2c(CC)cccc2CC)cc1 ?
Output: 57.6

Input: Recorded inhibition for CCc1cc(Nc2nccc(-c3c(-c4ccc(OC)c(C(=O)Nc5c(F)cccc5F)c4)nc4ccccn34)n2)c(OC)cc1N1CCC(N2CCN(S(C)(=O)=O)CC2)CC1 with G/T mismatch-specific thymine DNA glycosylase (Homo sapiens) (UniProt Q13569), please?
Output: 50.7

Input: Notebook: pull reported inhibition for G/T mismatch-specific thymine DNA glycosylase (Homo sapiens) (UniProt Q13569), entry N#Cc1cnc(Nc2cc(NC[C@H]3CNCCO3)c(C(F)(F)F)cn2)cn1
Output: 53.2

Input: So what inhibition did COc1ncc(-c2ccc3nccc(-c4ccnnc4)c3c2)cc1NS(=O)(=O)c1ccc(F)cc1F get with G/T mismatch-specific thymine DNA glycosylase (Homo sapiens) (UniProt Q13569)?
Output: 51.7
